Some binders, each annotated with its measured EC50.
- study-system: T1, human DLL4, full length, on cells (human, UniProt Q9NR61 27-685)
- T1 construct: also called huDLL4 cells; human DLL4-293G
- T1 sequence (Q9NR61 27-685 limits assumed): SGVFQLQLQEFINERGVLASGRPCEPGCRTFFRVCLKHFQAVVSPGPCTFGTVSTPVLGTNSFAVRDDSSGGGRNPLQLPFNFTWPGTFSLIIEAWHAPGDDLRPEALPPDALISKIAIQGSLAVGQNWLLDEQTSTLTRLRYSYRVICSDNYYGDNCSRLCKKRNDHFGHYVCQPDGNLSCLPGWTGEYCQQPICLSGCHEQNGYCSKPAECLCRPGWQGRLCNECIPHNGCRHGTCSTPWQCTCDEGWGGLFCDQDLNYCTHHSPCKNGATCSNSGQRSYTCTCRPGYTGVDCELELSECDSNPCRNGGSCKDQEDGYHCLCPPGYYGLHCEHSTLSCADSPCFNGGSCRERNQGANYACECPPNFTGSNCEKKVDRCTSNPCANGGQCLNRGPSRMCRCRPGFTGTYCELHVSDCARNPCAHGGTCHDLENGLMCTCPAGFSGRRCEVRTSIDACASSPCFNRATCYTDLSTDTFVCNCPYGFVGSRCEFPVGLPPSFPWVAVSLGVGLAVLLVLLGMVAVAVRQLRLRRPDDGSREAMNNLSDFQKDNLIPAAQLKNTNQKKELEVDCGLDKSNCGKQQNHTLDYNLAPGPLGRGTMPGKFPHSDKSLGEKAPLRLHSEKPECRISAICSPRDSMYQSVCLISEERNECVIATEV
- assay-summary: FACS, direct binding to DLL4 cells
measurement-label: EC50 (nM)

[
  {
    "binder": "h1A11.C6 (antibody, V domains shown, also called h1A11.C6 VH / h1A11VL.1) VH: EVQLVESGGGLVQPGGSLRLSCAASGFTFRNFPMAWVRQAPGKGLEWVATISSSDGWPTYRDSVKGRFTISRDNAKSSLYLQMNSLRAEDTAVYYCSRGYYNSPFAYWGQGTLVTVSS VL: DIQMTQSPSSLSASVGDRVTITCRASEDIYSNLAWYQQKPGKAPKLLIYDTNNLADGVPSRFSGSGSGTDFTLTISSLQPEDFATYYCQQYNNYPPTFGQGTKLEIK",
    "measured-result": 2.45
  },
  {
    "binder": "h1A11.F5 (antibody, V domains shown, also called h1A11.F5 VH / h1A11.E12 VL) VH: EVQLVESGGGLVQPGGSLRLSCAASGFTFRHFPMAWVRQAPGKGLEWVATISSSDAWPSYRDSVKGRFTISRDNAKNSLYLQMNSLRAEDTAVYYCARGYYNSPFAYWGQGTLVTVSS VL: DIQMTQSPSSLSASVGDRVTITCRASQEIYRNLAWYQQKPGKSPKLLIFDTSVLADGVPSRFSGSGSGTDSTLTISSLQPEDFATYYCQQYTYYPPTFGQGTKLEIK",
    "measured-result": 1.17
  },
  {
    "binder": "h1A11.A6 (antibody, V domains shown, also called h1A11.A6 VH / h1A11VL.1) VH: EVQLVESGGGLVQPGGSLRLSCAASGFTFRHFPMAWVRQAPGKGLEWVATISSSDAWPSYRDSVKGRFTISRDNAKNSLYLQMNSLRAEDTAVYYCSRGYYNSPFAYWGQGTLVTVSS VL: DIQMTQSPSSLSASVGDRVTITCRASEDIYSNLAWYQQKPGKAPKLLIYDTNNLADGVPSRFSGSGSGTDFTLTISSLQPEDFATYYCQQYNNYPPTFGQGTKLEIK",
    "measured-result": 2.23
  },
  {
    "binder": "h1A11.A8 (antibody, V domains shown, also called h1A11.A8 VH / h1A11VL.1) VH: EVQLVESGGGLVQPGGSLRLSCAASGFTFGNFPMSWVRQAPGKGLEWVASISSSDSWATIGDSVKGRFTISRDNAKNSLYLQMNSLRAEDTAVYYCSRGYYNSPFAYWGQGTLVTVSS VL: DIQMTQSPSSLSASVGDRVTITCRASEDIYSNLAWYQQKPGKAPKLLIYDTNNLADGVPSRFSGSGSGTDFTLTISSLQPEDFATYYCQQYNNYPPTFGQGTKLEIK",
    "measured-result": 3.16
  },
  {
    "binder": "h1A11.G3 (antibody, V domains shown, also called h1A11.G3 VH / h1A11.E12 VL) VH: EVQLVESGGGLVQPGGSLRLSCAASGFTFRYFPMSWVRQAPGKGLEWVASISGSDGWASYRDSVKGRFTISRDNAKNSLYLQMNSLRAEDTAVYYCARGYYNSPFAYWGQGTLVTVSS VL: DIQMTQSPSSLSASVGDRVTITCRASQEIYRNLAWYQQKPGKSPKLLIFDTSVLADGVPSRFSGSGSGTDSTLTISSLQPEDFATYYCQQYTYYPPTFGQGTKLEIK",
    "measured-result": 3.59
  },
  {
    "binder": "h1A11.E12 (antibody, V domains shown, also called h1A11.E12 VH / h1A11.E12 VL) VH: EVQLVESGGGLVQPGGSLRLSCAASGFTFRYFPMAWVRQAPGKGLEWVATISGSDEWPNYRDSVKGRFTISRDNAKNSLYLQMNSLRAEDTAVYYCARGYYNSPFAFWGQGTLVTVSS VL: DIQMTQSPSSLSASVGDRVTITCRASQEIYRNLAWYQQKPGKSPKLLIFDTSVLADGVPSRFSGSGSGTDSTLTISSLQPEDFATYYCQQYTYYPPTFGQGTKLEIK",
    "measured-result": 0.996
  },
  {
    "binder": "h1A11.A2 (antibody, V domains shown, also called h1A11VH.1 / h1A11.A2 VL) VH: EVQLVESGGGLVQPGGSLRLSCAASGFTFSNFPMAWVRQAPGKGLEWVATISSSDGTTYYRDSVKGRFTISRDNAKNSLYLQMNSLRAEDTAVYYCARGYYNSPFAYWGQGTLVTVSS VL: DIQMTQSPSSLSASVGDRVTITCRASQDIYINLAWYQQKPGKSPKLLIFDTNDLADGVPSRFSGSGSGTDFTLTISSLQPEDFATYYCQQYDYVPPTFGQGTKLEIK",
    "measured-result": 2.38
  },
  {
    "binder": "h1A11.H2 (antibody, V domains shown, also called h1A11.H2 VH / h1A11.E12 VL) VH: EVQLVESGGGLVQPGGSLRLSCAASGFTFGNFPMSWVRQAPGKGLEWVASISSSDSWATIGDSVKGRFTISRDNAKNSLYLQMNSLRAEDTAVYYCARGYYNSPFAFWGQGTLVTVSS VL: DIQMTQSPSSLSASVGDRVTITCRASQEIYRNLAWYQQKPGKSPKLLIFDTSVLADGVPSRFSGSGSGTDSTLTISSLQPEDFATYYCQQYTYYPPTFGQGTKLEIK",
    "measured-result": 1.98
  },
  {
    "binder": "h1A11.B4 (antibody, V domains shown, also called h1A11VH.1 / h1A11.B4 VL) VH: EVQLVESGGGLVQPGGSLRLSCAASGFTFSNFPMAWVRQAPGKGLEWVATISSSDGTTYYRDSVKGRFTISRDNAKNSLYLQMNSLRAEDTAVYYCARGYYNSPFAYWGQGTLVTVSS VL: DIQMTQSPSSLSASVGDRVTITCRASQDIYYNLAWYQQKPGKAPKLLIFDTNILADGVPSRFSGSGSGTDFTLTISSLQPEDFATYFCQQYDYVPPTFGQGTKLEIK",
    "measured-result": 2.15
  }
]

Cited source: patent US20110217237A1
